Reference source: paper PMC13083723

# Tested on: Vero-E6
# METHOD_DESCRIPTION: primary screen, phospholipidosis by LipidTOX staining; higher = more effect of the substance
# EXPERIMENTAL_SETUP: 10 µM
Out of some 5,400 compounds screened, about 190 (3.5%) showed an effect of 50% or more. This is one part of a sample in which strong results are shown more often than they occur.
MEASUREMENT_NAME: result_ITMP (%)
Numbers only, in %.

Record excerpt, results attached:
STRUCTURE_AS_SMILES | OBSERVED
Cc1onc(O)c1C[C@H](N)C(=O)O | -0.72
C[C@H]1CCC/C=C/[C@@H]2C[C@H](O)C[C@H]2[C@H](O)/C=C/C(=O)O1 | -2.38
CCCOC(C(=O)OC1CCN(C)CC1)(c1ccccc1)c1ccccc1 | 63.8

# map each compound to its result_ITMP
1. CCN1C[C@]2(COC(=O)c3ccccc3N3C(=O)C[C@H](C)C3=O)CC[C@H](OC)[C@@]34[C@@H]5C[C@H]6[C@H](OC)[C@@H]5[C@](O)(C[C@@H]6OC)[C@@](O)([C@@H](OC)[C@H]23)[C@@H]14
2. CC(=O)OC[C@]12CCC(C)=C[C@H]1O[C@@H]1[C@H](O)[C@@H](OC(C)=O)[C@@]2(C)[C@]12CO2
3. CN1C[C@H](CNC(=O)OCc2ccccc2)C[C@@H]2c3cccc4c3c(cn4C)C[C@H]21
4. C#C[C@]1(O)CC[C@H]2[C@@H]3CCC4=CC(=O)CC[C@]4(C)[C@H]3CC[C@@]21C
5. CN(CCc1ccc(Cl)c(Cl)c1)CCN1CCCC1
6. C[N@+]1(CC2CC2)CC[C@]23c4c5ccc(O)c4O[C@H]2C(=O)CC[C@@]3(O)[C@H]1C5

## Output
0.37
-25.8
61.8
-7.32
51.3
0.23

# map each compound to its result_ITMP
1. C[C@@H]1CN([C@H]2CC[C@](C#N)(c3ccc(F)cc3)CC2)CC[C@]1(C(=O)O)c1ccccc1
2. COC(=O)C[C@](O)(CCC(C)(C)O)C(=O)O[C@@H]1C(OC)=C[C@]23CCCN2CCc2cc4c(cc2[C@H]13)OCO4
3. COc1cc2c(cc1OC)[C@@]13CCN4CC5=CCO[C@H]6CC(=O)N2[C@H]1[C@H]6[C@H]5C[C@H]43
4. C=CC[C@]1(O)CC[C@H]2[C@@H]3CCC4=CCCC[C@@H]4[C@H]3CC[C@@]21C

## Output
1. -9.01
2. -10.1
3. 1.12
4. 0.46
